Reference source for all entries: patent US10647738B2

experiment: Critical micelle concentration by fluorescence staining with diphenylhexatriene (DPH); assay type: physicochemical; details: aqueous solution
measurement_type: CMC

compound	result
CCCCCCCCCCC(CO[C@@H]1OC(CO)[C@@H](O[C@H]2OC(CO)[C@@H](O)C(O)C2O)C(O)C1O)(CO[C@@H]1OC(CO)[C@@H](O[C@H]2OC(CO)[C@@H](O)C(O)C2O)C(O)C1O)Cc1ccc(CC(CCCCCCCCCC)(CO[C@@H]2OC(CO)[C@@H](O[C@H]3OC(CO)[C@@H](O)C(O)C3O)C(O)C2O)CO[C@@H]2OC(CO)[C@@H](O[C@H]3OC(CO)[C@@H](O)C(O)C3O)C(O)C2O)cc1 (stereo partly drawn) [P-XMA-C10]	~7 µM
CCCCCCCCCCCCCCC(CO[C@@H]1OC(CO)[C@@H](O[C@H]2OC(CO)[C@@H](O)C(O)C2O)C(O)C1O)(CO[C@@H]1OC(CO)[C@@H](O[C@H]2OC(CO)[C@@H](O)C(O)C2O)C(O)C1O)Cc1cccc(C[C@](CCCCCCCCCCCCCC)(CO[C@@H]2OC(CO)[C@@H](O[C@H]3OC(CO)[C@@H](O)C(O)C3O)C(O)C2O)CO[C@@H]2OC(CO)[C@@H](O[C@@H]3OC(CO)[C@@H](O)C(O)C3O)C(O)C2O)c1 (stereo partly drawn) [M-XMA-C14]	~2.5 µM
CCCCCCCCCC(CO[C@@H]1OC(CO)[C@@H](O[C@H]2OC(CO)[C@@H](O)C(O)C2O)C(O)C1O)(CO[C@@H]1OC(CO)[C@@H](O[C@H]2OC(CO)[C@@H](O)C(O)C2O)C(O)C1O)Cc1ccc(CC(CCCCCCCCC)(CO[C@@H]2OC(CO)[C@@H](O[C@H]3OC(CO)[C@@H](O)C(O)C3O)C(O)C2O)CO[C@@H]2OC(CO)[C@@H](O[C@H]3OC(CO)[C@@H](O)C(O)C3O)C(O)C2O)cc1 (stereo partly drawn) [P-XMA-C9]	~10 µM
CCCCCCCCCCCCCCC(CO[C@@H]1OC(CO)[C@@H](O[C@@H]2OC(CO)[C@@H](O)C(O)C2O)C(O)C1O)(CO[C@@H]1OC(CO)[C@@H](O[C@@H]2OC(CO)[C@@H](O)C(O)C2O)C(O)C1O)Cc1ccccc1CC(CCCCCCCCCCCCCC)(CO[C@@H]1OC(CO)[C@@H](O[C@@H]2OC(CO)[C@@H](O)C(O)C2O)C(O)C1O)CO[C@@H]1OC(CO)[C@@H](O[C@@H]2OC(CO)[C@@H](O)C(O)C2O)C(O)C1O (stereo partly drawn) [O-XMA-C14]	~3.0 µM
CCCCCCCCCCCCCCCCCCC(CO[C@@H]1OC(CO)[C@@H](O[C@@H]2OC(CO)[C@@H](O)C(O)C2O)C(O)C1O)(CO[C@@H]1OC(CO)[C@@H](O[C@@H]2OC(CO)[C@@H](O)C(O)C2O)C(O)C1O)Cc1cccc(CC(CCCCCCCCCCCCCCCCCC)(CO[C@@H]2OC(CO)[C@@H](O[C@@H]3OC(CO)[C@@H](O)C(O)C3O)C(O)C2O)CO[C@@H]2OC(CO)[C@@H](O[C@@H]3OC(CO)[C@@H](O)C(O)C3O)C(O)C2O)c1 (stereo partly drawn) [M-XMA-C18]	~1.5 µM
CCCCCCCCCCCCO[C@@H]1O[C@H](CO)[C@@H](O[C@H]2O[C@H](CO)[C@@H](O)[C@H](O)[C@H]2O)[C@H](O)[C@H]1O [DDM, n-dodecyl-β-D-maltopyranoside, reference compound]	~170 µM

---

assay: Critical micelle concentration by fluorescence staining with diphenylhexatriene (DPH); assay type: physicochemical; settings: aqueous solution
# key: entry, value: CMC (wt %)

molecule	CMC (wt %)
CCCCCCCCCCCCO[C@@H]1O[C@H](CO)[C@@H](O[C@H]2O[C@H](CO)[C@@H](O)[C@H](O)[C@H]2O)[C@H](O)[C@H]1O [DDM, n-dodecyl-β-D-maltopyranoside, reference compound]	~0.0087 wt %
CCCCCCCCCCCCCCC(CO[C@@H]1OC(CO)[C@@H](O[C@@H]2OC(CO)[C@@H](O)C(O)C2O)C(O)C1O)(CO[C@@H]1OC(CO)[C@@H](O[C@@H]2OC(CO)[C@@H](O)C(O)C2O)C(O)C1O)Cc1ccccc1CC(CCCCCCCCCCCCCC)(CO[C@@H]1OC(CO)[C@@H](O[C@@H]2OC(CO)[C@@H](O)C(O)C2O)C(O)C1O)CO[C@@H]1OC(CO)[C@@H](O[C@@H]2OC(CO)[C@@H](O)C(O)C2O)C(O)C1O (stereo partly drawn) [O-XMA-C14]	~0.0006 wt %
CCCCCCCCC(CO[C@@H]1OC(CO)[C@@H](O[C@H]2OC(CO)[C@@H](O)C(O)C2O)C(O)C1O)(CO[C@@H]1OC(CO)[C@@H](O[C@H]2OC(CO)[C@@H](O)C(O)C2O)C(O)C1O)Cc1ccc(C[C@](CCCCCCCC)(CO[C@H]2CC(O)[C@H](O[C@H]3OC(CO)[C@@H](O)C(O)C3O)C(CO)O2)CO[C@@H]2OC(CO)[C@@H](O[C@H]3OC(CO)[C@@H](O)C(O)C3O)C(O)C2O)cc1 (stereo partly drawn) [P-XMA-C8]	~0.004 wt %

---

test: Hydrodynamic radius and size distribution of micelles by dynamic light scattering (DLS); assay type: physicochemical; details: 1.0 wt % stated for M-/O-XMAs (FIG. 37)
measurement_type: Rh (nm), hydrodynamic radius of micelles

compound	quantitative_readout
CCCCCCCCCCCCCCCCC(CO[C@@H]1OC(CO)[C@@H](O[C@@H]2OC(CO)[C@@H](O)C(O)C2O)C(O)C1O)(CO[C@@H]1OC(CO)[C@@H](O[C@@H]2OC(CO)[C@@H](O)C(O)C2O)C(O)C1O)Cc1ccccc1CC(CCCCCCCCCCCCCCCC)(CO[C@@H]1OC(CO)[C@@H](O[C@@H]2OC(CO)[C@@H](O)C(O)C2O)C(O)C1O)CO[C@@H]1OC(CO)[C@@H](O[C@@H]2OC(CO)[C@@H](O)C(O)C2O)C(O)C1O (stereo partly drawn)	3.9
CCCCCCCCCCCC(CO[C@@H]1OC(CO)[C@@H](O[C@@H]2OC(CO)[C@@H](O)C(O)C2O)C(O)C1O)(CO[C@@H]1OC(CO)[C@@H](O[C@@H]2OC(CO)[C@@H](O)C(O)C2O)C(O)C1O)Cc1ccccc1C[C@](CCCCCCCCCCC)(CO[C@@H]1OC(CO)[C@@H](O[C@H]2OC(CO)[C@@H](O)C(O)C2O)C(O)C1O)CO[C@@H]1OC(CO)[C@@H](O[C@@H]2OC(CO)[C@@H](O)C(O)C2O)C(O)C1O (stereo partly drawn)	3.0
CCCCCCCCCCCCCCCCCCC(CO[C@@H]1OC(CO)[C@@H](O[C@@H]2OC(CO)[C@@H](O)C(O)C2O)C(O)C1O)(CO[C@@H]1OC(CO)[C@@H](O[C@@H]2OC(CO)[C@@H](O)C(O)C2O)C(O)C1O)Cc1cccc(CC(CCCCCCCCCCCCCCCCCC)(CO[C@@H]2OC(CO)[C@@H](O[C@@H]3OC(CO)[C@@H](O)C(O)C3O)C(O)C2O)CO[C@@H]2OC(CO)[C@@H](O[C@@H]3OC(CO)[C@@H](O)C(O)C3O)C(O)C2O)c1 (stereo partly drawn)	4.1
CCCCCCCCCCCCCCC(CO[C@@H]1OC(CO)[C@@H](O[C@H]2OC(CO)[C@@H](O)C(O)C2O)C(O)C1O)(CO[C@@H]1OC(CO)[C@@H](O[C@H]2OC(CO)[C@@H](O)C(O)C2O)C(O)C1O)Cc1cccc(C[C@](CCCCCCCCCCCCCC)(CO[C@@H]2OC(CO)[C@@H](O[C@H]3OC(CO)[C@@H](O)C(O)C3O)C(O)C2O)CO[C@@H]2OC(CO)[C@@H](O[C@@H]3OC(CO)[C@@H](O)C(O)C3O)C(O)C2O)c1 (stereo partly drawn)	3.6
CCCCCCCCCCCCCCC(CO[C@@H]1OC(CO)[C@@H](O[C@@H]2OC(CO)[C@@H](O)C(O)C2O)C(O)C1O)(CO[C@@H]1OC(CO)[C@@H](O[C@@H]2OC(CO)[C@@H](O)C(O)C2O)C(O)C1O)Cc1ccccc1CC(CCCCCCCCCCCCCC)(CO[C@@H]1OC(CO)[C@@H](O[C@@H]2OC(CO)[C@@H](O)C(O)C2O)C(O)C1O)CO[C@@H]1OC(CO)[C@@H](O[C@@H]2OC(CO)[C@@H](O)C(O)C2O)C(O)C1O (stereo partly drawn)	3.5
CCCCCCCCCCCCC(CO[C@@H]1OC(CO)[C@@H](O[C@@H]2OC(CO)[C@@H](O)C(O)C2O)C(O)C1O)(CO[C@@H]1OC(CO)[C@@H](O[C@@H]2OC(CO)[C@@H](O)C(O)C2O)C(O)C1O)Cc1ccccc1CC(CCCCCCCCCCCC)(CO[C@@H]1OC(CO)[C@@H](O[C@@H]2OC(CO)[C@@H](O)C(O)C2O)C(O)C1O)CO[C@@H]1OC(CO)[C@@H](O[C@@H]2OC(CO)[C@@H](O)C(O)C2O)C(O)C1O (stereo partly drawn)	3.2
